Assay: BSK_CASM3C_SRB: Viability Assessment in the BioMAP Diversity Plus: CASM3C Assay (AID 2283050);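 note: total protein by SRB staining as cytotoxicity measure in parallel cultures; cells exposed to compound for 24 h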
Details: primary human coronary artery smooth muscle cells
Active and inactive are the calls of the source. Rule for the calls: active = hit-call score of the fitted dose curve at least 0.9, where 1 is the maximum; inactive = score below 0.9.
Classes used: 1 (active), 0 (inactive)

LINE NOTATION | GROUP LABEL
CN=C=S | 0
C=CCOC(=O)C(C)(C)OC(=O)c1cc(-n2c(=O)cc(C(F)(F)F)n(C)c2=O)ccc1Cl | 0
CCSC(=O)N1CCCCCC1 | 0
COC(=O)c1c(C(F)F)nc(C(F)(F)F)c(C2=NCCS2)c1CC(C)C | 0
OC(c1ccc(Cl)cc1)(c1ccc(Cl)cc1)C(Cl)(Cl)Cl | 1

====

Read-out: Fatty acid synthase (Homo sapiens) (UniProt P49327)
Sequence (P49327 whole entry, looked up): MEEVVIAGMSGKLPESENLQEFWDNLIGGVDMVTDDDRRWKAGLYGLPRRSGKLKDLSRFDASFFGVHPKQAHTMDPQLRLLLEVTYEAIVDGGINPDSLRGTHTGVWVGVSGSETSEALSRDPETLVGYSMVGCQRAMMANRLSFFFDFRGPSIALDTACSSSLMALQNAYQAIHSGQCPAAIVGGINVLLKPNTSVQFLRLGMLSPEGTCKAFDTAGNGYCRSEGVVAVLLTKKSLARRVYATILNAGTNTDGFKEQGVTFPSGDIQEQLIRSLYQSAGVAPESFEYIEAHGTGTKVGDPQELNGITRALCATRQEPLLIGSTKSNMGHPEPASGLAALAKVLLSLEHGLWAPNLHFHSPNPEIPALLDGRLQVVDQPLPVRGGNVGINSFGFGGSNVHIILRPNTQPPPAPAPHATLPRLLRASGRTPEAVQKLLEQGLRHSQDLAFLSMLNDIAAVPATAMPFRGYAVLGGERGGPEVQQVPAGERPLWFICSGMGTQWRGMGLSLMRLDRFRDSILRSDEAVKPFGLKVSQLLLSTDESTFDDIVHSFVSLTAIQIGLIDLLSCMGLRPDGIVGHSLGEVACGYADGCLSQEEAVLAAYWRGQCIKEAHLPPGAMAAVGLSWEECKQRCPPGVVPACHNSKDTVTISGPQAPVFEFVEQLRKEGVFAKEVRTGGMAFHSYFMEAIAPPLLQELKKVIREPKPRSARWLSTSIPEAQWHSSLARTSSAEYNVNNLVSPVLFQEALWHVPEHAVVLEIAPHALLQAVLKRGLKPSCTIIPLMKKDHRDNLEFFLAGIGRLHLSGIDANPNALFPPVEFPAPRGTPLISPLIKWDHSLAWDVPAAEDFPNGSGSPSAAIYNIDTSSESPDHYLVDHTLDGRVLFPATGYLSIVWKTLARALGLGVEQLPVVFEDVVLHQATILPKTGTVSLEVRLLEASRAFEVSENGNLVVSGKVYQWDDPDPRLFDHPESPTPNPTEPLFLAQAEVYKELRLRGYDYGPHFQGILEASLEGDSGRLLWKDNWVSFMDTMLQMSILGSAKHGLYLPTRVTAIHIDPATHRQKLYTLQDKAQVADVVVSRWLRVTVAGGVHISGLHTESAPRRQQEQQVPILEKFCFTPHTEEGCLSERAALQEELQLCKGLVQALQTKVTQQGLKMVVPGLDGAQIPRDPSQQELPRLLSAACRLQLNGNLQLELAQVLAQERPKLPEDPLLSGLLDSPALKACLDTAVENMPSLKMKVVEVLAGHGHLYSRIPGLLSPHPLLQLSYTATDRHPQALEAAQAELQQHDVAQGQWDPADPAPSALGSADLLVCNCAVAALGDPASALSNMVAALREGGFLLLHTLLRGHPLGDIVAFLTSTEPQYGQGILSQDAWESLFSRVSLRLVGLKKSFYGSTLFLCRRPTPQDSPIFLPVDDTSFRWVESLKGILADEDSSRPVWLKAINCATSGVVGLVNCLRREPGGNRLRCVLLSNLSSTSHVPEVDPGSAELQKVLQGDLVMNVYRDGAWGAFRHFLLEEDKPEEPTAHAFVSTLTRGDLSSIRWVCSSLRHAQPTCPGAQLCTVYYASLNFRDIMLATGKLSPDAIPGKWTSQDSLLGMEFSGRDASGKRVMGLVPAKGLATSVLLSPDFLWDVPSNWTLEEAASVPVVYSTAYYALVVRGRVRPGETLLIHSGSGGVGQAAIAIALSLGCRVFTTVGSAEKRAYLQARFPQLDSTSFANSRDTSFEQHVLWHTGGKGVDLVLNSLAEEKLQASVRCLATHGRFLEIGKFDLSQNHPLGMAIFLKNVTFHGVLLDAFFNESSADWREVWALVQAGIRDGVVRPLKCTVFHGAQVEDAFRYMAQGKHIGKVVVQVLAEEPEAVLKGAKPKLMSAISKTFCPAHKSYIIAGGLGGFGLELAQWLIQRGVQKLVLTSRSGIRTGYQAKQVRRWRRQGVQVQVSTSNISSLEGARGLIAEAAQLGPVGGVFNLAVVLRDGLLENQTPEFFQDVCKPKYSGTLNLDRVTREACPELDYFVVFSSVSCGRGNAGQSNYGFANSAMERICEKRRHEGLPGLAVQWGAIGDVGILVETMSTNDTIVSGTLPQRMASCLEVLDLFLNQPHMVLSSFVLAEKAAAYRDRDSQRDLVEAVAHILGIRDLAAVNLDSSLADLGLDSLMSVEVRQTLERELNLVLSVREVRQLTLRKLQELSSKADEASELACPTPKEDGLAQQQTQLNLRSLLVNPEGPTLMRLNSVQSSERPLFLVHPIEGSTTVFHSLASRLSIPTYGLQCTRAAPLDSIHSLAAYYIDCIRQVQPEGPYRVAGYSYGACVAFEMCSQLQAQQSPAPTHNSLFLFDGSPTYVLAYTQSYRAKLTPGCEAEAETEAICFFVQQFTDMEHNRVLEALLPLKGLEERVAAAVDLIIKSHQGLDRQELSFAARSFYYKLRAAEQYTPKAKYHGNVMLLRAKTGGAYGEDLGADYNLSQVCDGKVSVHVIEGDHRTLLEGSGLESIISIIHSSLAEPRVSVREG
Assay: LTEA_HepaRG_FASN: Life Technologies and Expression Analysis (LTEA) Assay for Fatty Acid Synthase (FASN) using HepaRG (AID 2283448);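 for AC50: differentiated human HepaRG liver cells in serum-free induction medium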
Conditions: mRNA level, 48 h; actives raise or lower the signal
Active and inactive are the calls of the source. The calls were made as follows: active = hit-call score of the fitted dose curve at least 0.9, where 1 is the maximum; inactive = score below 0.9.
MEASURED ATTRIBUTE: AC50

MOLECULE | OBSERVED RESULT
CCOC(=O)C(C)OC(=O)c1cc(Oc2ccc(C(F)(F)F)cc2Cl)ccc1[N+](=O)[O-] (configuration not stated) | 35.1 µM (active)
CC1(C)C(C=C(Cl)Cl)C1C(=O)OC(C#N)c1cccc(Oc2ccccc2)c1 (configuration not stated) | inactive
O=C1C2CC=CCC2C(=O)N1SC(Cl)(Cl)Cl (configuration not stated) | 70.9 µM (active)
CC(C)=CC1C(C(=O)OCc2coc(Cc3ccccc3)c2)C1(C)C (configuration not stated) | inactive
CCOP(=S)(OCC)Oc1nc(Cl)n(C(C)C)n1 | 30.5 µM (active)
N#CN=C1SCCN1Cc1ccc(Cl)nc1 | inactive
CCN(CC)c1nc(C)cc(OP(=S)(OC)OC)n1 | 27.4 µM (active)
Cc1ccc(N=CN(C)C=Nc2ccc(C)cc2C)c(C)c1 | inactive
CN=C=S | inactive
COC(=O)NS(=O)(=O)c1ccc(N)cc1 | inactive
CCOc1nc(F)cc2nc(S(=O)(=O)Nc3c(Cl)cccc3Cl)nn12 | inactive
CCOP(=O)(OCC)Oc1nc(Cl)c(Cl)cc1Cl | 60.2 µM (active)
CC1(C)CCC(=Cc2ccc(Cl)cc2)C1(O)Cn1cncn1 (configuration not stated) | 6.85 µM (active)
O=c1n(Cl)c(=O)n(Cl)c(=O)n1Cl | inactive
CC(C)Nc1nc(Cl)nc(NC(C)C)n1 | inactive
Cc1c(COC(=O)[C@@H]2[C@H](/C=C(\Cl)C(F)(F)F)C2(C)C)cccc1-c1ccccc1 | inactive
CCSC(=O)N1CCCCCC1 | inactive

====

Tested on: rat CYP2B1, gene 24300
Experiment: NVS_ADME_rCYP2B1: NovaScreen (NVS) CYP450-related Enzyme Activity (ADME) Assay for rat CYP2B1 (AID 2283117)
Protocol: NVS_ADME_rCYP2B1 is a biochemical, single-readout assay that uses extracted gene-proteins in a cell-free assay. Measurements were taken 0.75 hour after chemical dosing in a 96-well plate.NVS_ADME_rCYP2B1 is one of one assay component(s) measured or calculated from the NVS_ADME_rCYP2B1 assay. […] This assay endpoint, NVS_ADME_rCYP2B1, was analyzed in the positive analysis fitting direction relative to Acetonitrile as the negative control and baseline of activity. […]
The source made the active and inactive calls. How the source made its calls: active means hit-call score of the fitted dose curve at least 0.9, where 1 is the maximum; inconclusive means response in the unintended direction; inactive means score below 0.9.
Outcomes: active, inactive

COMPOUND | GROUP LABEL
CCCN(CC)CC1COC2(CCC(C(C)(C)C)CC2)O1 (centres undefined) | inactive
CCCCC(C#N)(Cn1cncn1)c1ccc(Cl)cc1 (centres undefined) | active
COP(=S)(OC)SCn1nnc2ccccc2c1=O | active
CCNC(=O)NC(=O)C(C#N)=NOC | inactive

====

Assay: Tanguay_ZF_120hpf_EYE_legacy: (Legacy) Oregon State University Tanguay Lab 120 Hour Post-fertilization zebrafish Assay for Eye Malformation (AID 2283636);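 note: binary presence or absence of eye malformation scored by brightfield in 120 hpf larvae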
Experimental: Tanguay_ZF_120hpf_legacy is a whole embryo, multiplexed endpoint assay using zebrafish larvae exposed for 120 hours post fertilization on a 96-well plate.Tanguay_ZF_120hpf_EYE_legacy is one of one assay component(s) measured or calculated from the Tanguay_ZF_120hpf_legacy assay. […] This assay endpoint, Tanguay_ZF_120hpf_EYE_legacy, was analyzed in the positive analysis fitting direction relative to DMSO as the negative control and baseline of activity. […]
Records with an inconclusive call do not appear. The source made the active and inactive calls. The calls were made as follows: active = hit-call score of the fitted dose curve at least 0.9, where 1 is the maximum; inconclusive = response in the unintended direction; inactive = score below 0.9.
Labels: y = active, n = inactive

LINE NOTATION | GROUP LABEL
CC1(C)CON(Cc2ccccc2Cl)C1=O | n
CC(C)Nc1nc(Cl)nc(NC(C)C)n1 | n
CC(C)Oc1cccc(NC(=O)c2ccccc2C(F)(F)F)c1 | y
Cn1c(-c2ccccc2)cc(-c2ccccc2)[n+]1C | n
COC(=O)N(C(=O)N1CO[C@@]2(C(=O)OC)Cc3cc(Cl)ccc3C2=N1)c1ccc(OC(F)(F)F)cc1 | n
CO/N=C(/C1=NOCCO1)c1ccccc1Oc1ncnc(Oc2ccccc2Cl)c1F | n
CC(C)N1C(=O)N(c2ccccc2)CSC1=NC(C)(C)C | n

====

Experiment: Tanguay_ZF_120hpf_EYE_legacy: (Legacy) Oregon State University Tanguay Lab 120 Hour Post-fertilization zebrafish Assay for Eye Malformation (AID 2283636);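 note: binary presence or absence of eye malformation scored by brightfield in 120 hpf larvae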
Method: Tanguay_ZF_120hpf_legacy is a whole embryo, multiplexed endpoint assay using zebrafish larvae exposed for 120 hours post fertilization on a 96-well plate.Tanguay_ZF_120hpf_EYE_legacy is one of one assay component(s) measured or calculated from the Tanguay_ZF_120hpf_legacy assay. […] This assay endpoint, Tanguay_ZF_120hpf_EYE_legacy, was analyzed in the positive analysis fitting direction relative to DMSO as the negative control and baseline of activity. […]
Records with an inconclusive call do not appear. Calls of active or inactive are those of the source. Rule for the calls: active = hit-call score of the fitted dose curve at least 0.9, where 1 is the maximum; inconclusive = response in the unintended direction; inactive = score below 0.9.
Outcome codes: active, inactive

MOLECULE | GROUP LABEL
CCOc1cc(C(C)(C)C)ccc1C1COC(c2c(F)cccc2F)=N1 (stereo unspecified) | inactive
Cc1nc(N(C)C)nc(OC(=O)N(C)C)c1C | inactive
CC1(C)CCC(=Cc2ccc(Cl)cc2)C1(O)Cn1cncn1 (stereo unspecified) | inactive
O=P(O)(O)CCCl | inactive
CCCC(=NOCC)C1=C(O)CC(CC(C)SCC)CC1=O (stereo unspecified) | inactive
CCSC(=O)N1CCCCCC1 | inactive
CC(C)N1C(=O)c2ccccc2NS1(=O)=O | inactive
COCC(C)N(C(=O)CCl)c1c(C)csc1C (stereo unspecified) | active
COC(=O)NC(=S)Nc1ccccc1NC(=S)NC(=O)OC | inactive
CCCCOCN(C(=O)CCl)c1c(CC)cccc1CC | inactive
COc1cc(Cl)c(OC)cc1Cl | inactive
COc1ccc(-c2ccccc2)cc1NNC(=O)OC(C)C | inactive
CC1(C)C(C(=O)OC(C#N)c2cccc(Oc3ccccc3)c2)C1(C)C (stereo unspecified) | inactive
CNC(=O)Oc1cccc2ccccc12 | inactive
COC(=O)NS(=O)(=O)c1ccc(N)cc1 | inactive
Cc1c(COC(=O)[C@@H]2[C@H](/C=C(\Cl)C(F)(F)F)C2(C)C)cccc1-c1ccccc1 | inactive

====

Read-out: CYP2C8 (gene 1558)
Test: LTEA_HepaRG_CYP2C8: Life Technologies and Expression Analysis (LTEA) Assay for CYP2C8 using HepaRG (AID 2283483)
Details: mRNA level, 48 h; actives raise or lower the signal
Calls of active or inactive are those of the source. How the source made its calls: active means hit-call score of the fitted dose curve at least 0.9, where 1 is the maximum; inactive means score below 0.9.
Outcomes: label 1 = active, label 0 = inactive

LINE NOTATION | GROUP LABEL
COP(=S)(OC)SCn1nnc2ccccc2c1=O | label 0
COC(=O)NS(=O)(=O)c1ccc(N)cc1 | label 0
CC(C)N1C(=O)N(c2ccccc2)CSC1=NC(C)(C)C | label 1
COc1ccc(-c2ccccc2)cc1NNC(=O)OC(C)C | label 0
Nc1c(Cl)c(Cl)nc(C(=O)O)c1Cl | label 0
OC(c1ccc(Cl)cc1)(c1ccc(Cl)cc1)C(Cl)(Cl)Cl | label 1
Cn1c(-c2ccccc2)cc(-c2ccccc2)[n+]1C | label 1
CCNC(=O)NC(=O)C(C#N)=NOC | label 0
CS(=O)(=O)c1ccc(C(=O)C2C(=O)CCCC2=O)c([N+](=O)[O-])c1 | label 0
CCOc1nc(F)cc2nc(S(=O)(=O)Nc3c(Cl)cccc3Cl)nn12 | label 0

====

Read-out: E-selectin (Homo sapiens) (UniProt P16581)
Sequence (P16581 whole entry, looked up): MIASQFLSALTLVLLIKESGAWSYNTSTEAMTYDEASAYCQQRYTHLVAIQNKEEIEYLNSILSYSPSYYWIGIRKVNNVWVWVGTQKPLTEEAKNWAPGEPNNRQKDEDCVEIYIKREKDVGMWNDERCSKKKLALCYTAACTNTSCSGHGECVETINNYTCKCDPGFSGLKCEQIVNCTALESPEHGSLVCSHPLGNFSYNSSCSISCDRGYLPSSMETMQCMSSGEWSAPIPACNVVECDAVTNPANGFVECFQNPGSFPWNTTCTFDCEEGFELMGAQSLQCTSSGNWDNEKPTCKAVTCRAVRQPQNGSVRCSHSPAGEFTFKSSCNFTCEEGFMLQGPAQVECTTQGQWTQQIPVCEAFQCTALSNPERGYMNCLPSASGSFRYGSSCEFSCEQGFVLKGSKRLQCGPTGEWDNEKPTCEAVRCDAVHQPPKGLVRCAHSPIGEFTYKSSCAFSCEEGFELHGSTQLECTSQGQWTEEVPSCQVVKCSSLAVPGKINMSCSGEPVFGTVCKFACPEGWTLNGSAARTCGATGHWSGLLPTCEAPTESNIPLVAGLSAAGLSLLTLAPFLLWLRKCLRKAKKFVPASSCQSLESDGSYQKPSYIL
Experiment: BSK_3C_Eselectin: BioMAP Diversity Plus: 3C Assay for Eselectin Biomarker Activity (AID 2283015)
Settings: primary human endothelial cells (HUVEC); actives raise or lower the signal
The source made the active and inactive calls. The calls were made as follows: active = hit-call score of the fitted dose curve at least 0.9, where 1 is the maximum; inactive = score below 0.9.
Outcomes: active, inactive

MOLECULE | GROUP LABEL
CCOc1nc(C(Cl)(Cl)Cl)ns1 | inactive
Cc1ccc(N=CN(C)C=Nc2ccc(C)cc2C)c(C)c1 | active
COCC(C)N(C(=O)CCl)c1c(C)csc1C (stereo not given) | inactive
CN/C(=N\[N+](=O)[O-])NCc1cnc(Cl)s1 | inactive
N#CN=C1SCCN1Cc1ccc(Cl)nc1 | inactive
COC(=O)NS(=O)(=O)c1ccc(N)cc1 | inactive
CC1(C)C(C=C(Cl)Cl)C1C(=O)OC(C#N)c1cccc(Oc2ccccc2)c1 (stereo not given) | inactive
COC(=O)c1c(C(F)F)nc(C(F)(F)F)c(C2=NCCS2)c1CC(C)C | inactive
CCSC(=O)N1CCCCCC1 | inactive
COc1ccc(-c2ccccc2)cc1NNC(=O)OC(C)C | inactive
